- Test system: slender amaranth (Am)
- experimental protocol: Test Example 7: crop plant selectivity by upland field soil treatment (corn), herbicidal effects
- Assay type: in vivo
- Set-up: scale not given here
- condition details: dose 1.6 g ai/10a, 21st day after application
- Source text: (Test on Crop Plant Selectivity by Upland Field Soil Treatment) In a plastic pot (surface area: 600 cm^2) filled with sand, corn (Ze), green foxtail (Se), pale smartweed (Po), slender amaranth (Am), common lambsquarters (Ch) and China jute (Ab) were sown and covered with soil. […]
Would you kindly list Herbicidal effects Am for each of these compounds?
Numbers only.

C#CC(C)Oc1cc(-c2ccc(C(F)(F)F)n(C)c2=O)c(F)cc1Cl (stereo not drawn) [1-17]
5
C#CCOc1cc(-c2ccc(C(F)(F)F)n(C)c2=O)c(F)cc1Cl [1-18]
5

Per the records, this compound ( Cc1cc2c(-c3ccc(C(F)(F)F)n(C)c3=O)c(F)cc(Cl)c2o1 [Compound 4-1] ) has Herbicidal effects Am equal to 5
